Source of measurements: PubChem BioAssay (NCI)

# protocol.notes: NCI Yeast Anticancer Drug Screen. Data for the rad50 strain (AID 155);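 further: 0% = growth of vehicle-only cultures of the same strain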
# assay.context: S. cerevisiae rad50 strain growth inhibition; at 50.0 µM
Compounds without any hit were thinned out: in the full panel of roughly 79,000, 15% have a hit. The source made the active and inactive calls. No stated cut-off is given here; in the data, active means growth inhibition above about 70%; inactive means the rest.
Write down the outcome that applies. Available outcomes: Yes for active, No for inactive

O=C1c2ccccc2-c2ccc(N=Cc3ccccc3)cc21 = Yes
COc1ccc2c(c1)CCCC(Br)C2=O (configuration not stated) = No
O/N=c1/ccn(O)c2ccccc12 = Yes

Ask | What classification did CCCCCCCCNCCCCCCCC end up with in this test?
Reply | Yes

Ask | What classification did Cc1cccc(/C=N/NC(=S)NC2CCCCC2)n1 end up with in this test?
Reply | No

Ask | What classification did COc1cccc(C(NC2=NCCC=N2)c2cc3c(cc2O)OCO3)c1O (configuration not stated) end up with in this test?
Reply | No

Ask | What classification did CC1=CC(=C(c2ccc(N)c(C)c2)c2ccc(N)c(C)c2)C=CC1=N end up with in this test?
Reply | Yes

---

# protocol.notes: NCI Yeast Anticancer Drug Screen. Data for the rad18 strain (AID 177)
# assay.context: S. cerevisiae rad18 mutant growth inhibition; at 11.0 µM; stronger effect = higher value
# Experimental: Growth inhibition of yeast strains with defined genetic alterations is measured as a screen for potential anti-cancer activity. Selected strains with alterations in DNA damage repair or cell cycle control were exposed to compounds and growth inhibition was measured relative to vehicle treated controls. The strain used in this assay is rad18
This is part of a sample that, as a whole, favours compounds with a hit. Of some 79,000 tested, about 15% had one in any assay.
endpoint.label: growth inhibition (%)
Use % as the unit, but write only the number.

Ask | Give me measured growth inhibition, please, for this compound: C[C@H](CCC1=NC(C)(C)CO1)C1CCC2[C@@H]3C(O)C[C@@H]4CC(O)CC[C@]4(C)C3CC[C@@]21C (stereo partly specified)
Reply | -6

Ask | Give me measured growth inhibition, please, for this compound: Nc1cccc(-c2cc[cH-]c2)c1.[Fe+2].c1cc[cH-]c1
Reply | 26

Ask | Give me measured growth inhibition, please, for this compound: CC1CCN(CCC(=O)c2ccc([N+](=O)[O-])cc2)CC1
Reply | 23

Ask | Give me measured growth inhibition, please, for this compound: CN(C)CC1=Nc2cccc3cccc(c23)N1
Reply | -14

Ask | Give me measured growth inhibition, please, for this compound: O=C(Oc1ccc([N+](=O)[O-])cc1)c1ccc([N+](=O)[O-])cc1
Reply | 5

Ask | Give me measured growth inhibition, please, for this compound: CCC(/C=C/c1ccccc1)=N\Nc1ccc(Cl)c(Cl)c1
Reply | 8

Ask | Give me measured growth inhibition, please, for this compound: CCN(CC)CCNc1ccc2nc(C)n3c4ccc(O)cc4c(=O)c1c23
Reply | -4

---

# protocol.notes: NCI Yeast Anticancer Drug Screen. Data for the wt1 strain (AID 149);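 further: 0% = growth of vehicle-treated wt1 cultures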
# assay.context: S. cerevisiae wt1 strain (SPY 50644) growth inhibition; at 3.7 µM; stronger effect = higher value
About 79,000 compounds went through this panel and 15% of them were active in at least one assay; those are over-represented in the sample as a whole.
growth inhibition for assorted compounds
Use % as the unit, but write only the number.

Would you please look over these solved cases?
CCC(OC(C)=O)C1CC(C(C)C)CCC1C (stereo unspecified) = -1
O=C(Nc1ccc(Cl)cc1)c1cc2cc(N=Nc3ccccc3Cl)ccc2oc1=O = 8
CCC(C)(C)c1ccc(Oc2ccccc2)c(N)c1 = -12
CCCCCCCCCCCCCCCCCCN(C)C(COC)COP(=O)([O-])OCC[N+](C)(C)C (stereo unspecified) = -56

Ask | Give me measured growth inhibition, please, for this compound: CC(=O)/C=C/c1cccc([N+](=O)[O-])c1
Reply | 4

Ask | Give me measured growth inhibition, please, for this compound: CCCCCCNCCCNc1c2ccccc2nc2cccc([N+](=O)[O-])c12
Reply | 0
